biological target: HlyA1-IFABP fusion protein (encoded by pIAR_207, SEQ ID NO: 20; IFABP wt accession NP_037200) (Rattus norvegicus); construct: pIAR_207; assay: Fluorescence spectroscopy titration with DAUDA, refolded HlyA1-IFABP; type: binding; conditions: refolded/purified in the presence of EDTA; 100 nM protein, 20 mM KH2PO4, 0.25 mM EDTA, pH 7.3; excitation 350 nm, emission 500 nm; read-out: KD for HlyA1-IFABP refolded in EDTA
Sequence (P02693 1-132 with tags or gaps): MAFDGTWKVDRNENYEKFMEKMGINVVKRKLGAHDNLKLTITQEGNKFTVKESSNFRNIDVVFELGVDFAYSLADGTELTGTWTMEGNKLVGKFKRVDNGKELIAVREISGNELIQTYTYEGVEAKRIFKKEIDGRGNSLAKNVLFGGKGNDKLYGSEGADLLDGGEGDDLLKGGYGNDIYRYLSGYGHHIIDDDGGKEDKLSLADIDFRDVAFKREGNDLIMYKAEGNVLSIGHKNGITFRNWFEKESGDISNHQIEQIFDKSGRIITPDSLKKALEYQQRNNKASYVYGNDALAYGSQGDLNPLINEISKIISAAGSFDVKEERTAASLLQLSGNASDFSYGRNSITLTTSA
MEASURE NAME: pKd
Bear in mind: pKd is minus log10 of a mol/L concentration; give just that figure.

Ask: Consider the molecule shown here: `CN(C)c1cccc2c(S(=O)(=O)NCCCCCCCCCCC(=O)O)cccc12` What is its recorded pKd?
Reply: 6.58
